src = patent US20230348569A1

SUBJECT_OF_TEST: SARS-CoV-2 RBD extracellular domain expressed with a C-terminal myc-myc-hexahistidine tag (SARS-COV-2 RBD-MMH) (SARS-CoV-2)
PROTOCOL_CONDITIONS: remark: other sources report otherwise
EXPERIMENTAL_ENDPOINT: t½ (dissociative half-life) (min)
Numbers only; they are read as min.

Solved cases (3 shown):
Ask: Fill blank: measured t½ (dissociative half-life) of the binder mAb10998 (antibody, V domains shown) VH: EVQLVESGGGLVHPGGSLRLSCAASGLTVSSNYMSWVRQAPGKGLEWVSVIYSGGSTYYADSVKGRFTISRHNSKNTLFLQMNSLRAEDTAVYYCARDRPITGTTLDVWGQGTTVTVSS VL: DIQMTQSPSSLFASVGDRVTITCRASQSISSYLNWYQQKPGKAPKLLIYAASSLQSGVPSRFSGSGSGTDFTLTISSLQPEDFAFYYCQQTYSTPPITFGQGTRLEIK is ____.
Result: 0.5

Ask: Fill blank: measured t½ (dissociative half-life) of the binder mAb11004 (antibody, V domains shown) VH: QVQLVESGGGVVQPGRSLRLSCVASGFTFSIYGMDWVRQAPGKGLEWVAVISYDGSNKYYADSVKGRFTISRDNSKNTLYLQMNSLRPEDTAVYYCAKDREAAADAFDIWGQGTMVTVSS VL: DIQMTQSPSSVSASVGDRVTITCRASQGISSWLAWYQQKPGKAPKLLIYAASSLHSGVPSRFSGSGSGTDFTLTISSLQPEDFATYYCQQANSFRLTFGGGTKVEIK is ____.
Result: 3.7

Ask: Fill blank: measured t½ (dissociative half-life) of the binder mAb11006 (antibody, V domains shown) VH: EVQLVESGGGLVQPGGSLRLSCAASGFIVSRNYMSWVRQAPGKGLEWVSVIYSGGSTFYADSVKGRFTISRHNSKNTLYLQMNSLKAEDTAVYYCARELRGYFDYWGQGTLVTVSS VL: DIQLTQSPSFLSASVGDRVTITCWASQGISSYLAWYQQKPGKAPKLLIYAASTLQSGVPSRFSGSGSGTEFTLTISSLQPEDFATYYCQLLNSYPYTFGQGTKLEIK is ____.
Result: 31.5

// below: t½ (dissociative half-life) requested for another binder
Ask: Fill blank: measured t½ (dissociative half-life) of the binder mAb11008 (antibody, V domains shown) VH: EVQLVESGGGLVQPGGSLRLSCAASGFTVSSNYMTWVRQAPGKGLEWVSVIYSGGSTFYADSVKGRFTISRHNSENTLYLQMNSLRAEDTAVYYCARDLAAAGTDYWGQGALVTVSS VL: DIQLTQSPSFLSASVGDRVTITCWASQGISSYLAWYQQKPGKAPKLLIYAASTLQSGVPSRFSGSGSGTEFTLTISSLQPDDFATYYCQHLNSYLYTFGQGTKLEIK is ____.
Result: 2.9
